- testedTarget: rat brain monoamine oxidase-A (Rattus norvegicus)
- Construct: appropriately diluted homogenates of rat brain or liver; from tissue; host or cells: rat brain or liver homogenate
- Sequence (P21396 1-526): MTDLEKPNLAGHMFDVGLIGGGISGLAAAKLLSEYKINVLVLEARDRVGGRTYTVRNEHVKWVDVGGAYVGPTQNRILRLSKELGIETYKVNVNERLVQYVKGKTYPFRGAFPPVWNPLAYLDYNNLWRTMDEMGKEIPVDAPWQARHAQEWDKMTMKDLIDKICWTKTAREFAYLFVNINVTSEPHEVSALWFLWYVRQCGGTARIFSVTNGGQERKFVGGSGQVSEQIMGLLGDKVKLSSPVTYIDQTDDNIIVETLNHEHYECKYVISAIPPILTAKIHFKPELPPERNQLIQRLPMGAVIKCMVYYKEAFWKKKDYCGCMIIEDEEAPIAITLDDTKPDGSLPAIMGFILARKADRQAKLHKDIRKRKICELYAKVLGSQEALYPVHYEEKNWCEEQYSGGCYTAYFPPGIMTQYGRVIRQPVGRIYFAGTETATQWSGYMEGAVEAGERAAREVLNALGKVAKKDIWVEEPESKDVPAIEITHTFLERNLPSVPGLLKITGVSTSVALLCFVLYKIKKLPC
- testMethodNotes: Monoamine oxidase-A inhibiting activity in vitro (radiochemical, 5-hydroxytryptamine substrate, rat brain homogenate)
- Assay type: biochemical
- appliedConditions: 1 × 10^-5 M
# inhibition at 10 µM >= 30% gives Met, anything below gives Not met

### Prompt Form field: inhibition at 10 µM at least 30%? Entry: `C#CCNNCCc1ccccc1`
### Response Not met

### Prompt Same again, this time with `C#CCN(CCc1ccccc1)NC(C)=O`
### Response Not met

### Prompt Same again, this time with C#CCN(N)c1ccccc1 [CVT-P047, N^1 -propargylphenylhydrazine]
### Response Met

### Prompt Same again, this time with C#CCN(N)Cc1ccccc1 [CVT-P046, N^1 -propargylbenzylhydrazine]
### Response Met

### Prompt Same again, this time with `C#CCN(N)CCc1ccccc1`
### Response Met

### Prompt Same again, this time with NNCCc1ccccc1 [phenelzine, 1-(2-phenyl) ethylhydrazine, reference compound]
### Response Met

----------
- testedTarget: rat brain monoamine oxidase-B (Rattus norvegicus, UniProt P19643)
- Construct: appropriately diluted homogenates of rat brain or liver; from tissue; host or cells: rat brain or liver homogenate
- Sequence (P19643 whole entry): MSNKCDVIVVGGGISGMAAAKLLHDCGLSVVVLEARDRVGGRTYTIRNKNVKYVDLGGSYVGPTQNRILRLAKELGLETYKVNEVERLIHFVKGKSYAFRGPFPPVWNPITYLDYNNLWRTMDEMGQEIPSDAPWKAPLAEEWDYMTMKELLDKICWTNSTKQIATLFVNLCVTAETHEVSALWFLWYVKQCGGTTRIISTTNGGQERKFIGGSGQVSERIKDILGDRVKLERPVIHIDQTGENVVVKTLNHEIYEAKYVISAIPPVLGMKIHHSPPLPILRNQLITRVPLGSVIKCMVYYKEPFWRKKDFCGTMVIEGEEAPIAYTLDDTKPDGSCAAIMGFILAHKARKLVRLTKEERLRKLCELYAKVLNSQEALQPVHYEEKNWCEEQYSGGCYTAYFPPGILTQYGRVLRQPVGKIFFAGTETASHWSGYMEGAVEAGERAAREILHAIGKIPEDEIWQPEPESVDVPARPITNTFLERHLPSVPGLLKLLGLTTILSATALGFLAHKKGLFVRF
- testMethodNotes: Monoamine oxidase-B inhibiting activity in vitro (radiochemical, β-phenylethylamine substrate, rat brain homogenate)
- Assay type: biochemical
- appliedConditions: 1 × 10^-8 M
Consider the following compounds; for each one, report its inhibition at 0.01 µM.
Please respond with the number in % and leave the unit unwritten.

### Prompt Please look up its inhibition at 0.01 µM: C#CCN(N)CCc1ccccc1 [CVT-P040, N^1 -propargylphenelzine]
### Response 19.9

### Prompt Same again, this time with C#CCN(CCc1ccccc1)NC(C)=O [CVT-P041, N^1 -propargyl-N^2 -acetylphenelzine]
### Response -2

### Prompt Same again, this time with NNCCc1ccccc1 [phenelzine, 1-(2-phenyl) ethylhydrazine, reference compound]
### Response 6.9

### Prompt Same again, this time with C#CCN(N)Cc1ccccc1 [CVT-P046, N^1 -propargylbenzylhydrazine]
### Response 18.6

### Prompt Same again, this time with C#CCN(N)c1ccccc1 [CVT-P047, N^1 -propargylphenylhydrazine]
### Response 0.1

----------
- testedTarget: rat brain monoamine oxidase-B (Rattus norvegicus)
- Construct: appropriately diluted homogenates of rat brain or liver; from tissue; host or cells: rat brain or liver homogenate
- testMethodNotes: Monoamine oxidase-B inhibiting activity in vitro (radiochemical, β-phenylethylamine substrate, rat brain homogenate)
- Assay type: biochemical
- appliedConditions: 1 × 10^-4 M
quantityKind: inhibition at 100 µM (%)
Please respond with the number in % and leave the unit unwritten.

### Prompt Please look up its inhibition at 100 µM: NNCCc1ccccc1 [phenelzine, 1-(2-phenyl) ethylhydrazine, reference compound]
### Response 100

### Prompt Same again, this time with `C#CCN(CCc1ccccc1)NC(C)=O`
### Response 92.7

### Prompt Same again, this time with `C#CCNNCCc1ccccc1`
### Response 20.9

### Prompt Same again, this time with `C#CCN(N)CCc1ccccc1`
### Response 99.7

### Prompt Same again, this time with C#CCN(N)Cc1ccccc1 [CVT-P046, N^1 -propargylbenzylhydrazine]
### Response 100

### Prompt Same again, this time with C#CCN(N)c1ccccc1 [CVT-P047, N^1 -propargylphenylhydrazine]
### Response 100

----------
Consider the following molecules; for each one, report its inhibition at 0.1 µM.
- testedTarget: rat brain monoamine oxidase-A (Rattus norvegicus)
- Construct: appropriately diluted homogenates of rat brain or liver; from tissue; host or cells: rat brain or liver homogenate
- Sequence (P21396 1-526): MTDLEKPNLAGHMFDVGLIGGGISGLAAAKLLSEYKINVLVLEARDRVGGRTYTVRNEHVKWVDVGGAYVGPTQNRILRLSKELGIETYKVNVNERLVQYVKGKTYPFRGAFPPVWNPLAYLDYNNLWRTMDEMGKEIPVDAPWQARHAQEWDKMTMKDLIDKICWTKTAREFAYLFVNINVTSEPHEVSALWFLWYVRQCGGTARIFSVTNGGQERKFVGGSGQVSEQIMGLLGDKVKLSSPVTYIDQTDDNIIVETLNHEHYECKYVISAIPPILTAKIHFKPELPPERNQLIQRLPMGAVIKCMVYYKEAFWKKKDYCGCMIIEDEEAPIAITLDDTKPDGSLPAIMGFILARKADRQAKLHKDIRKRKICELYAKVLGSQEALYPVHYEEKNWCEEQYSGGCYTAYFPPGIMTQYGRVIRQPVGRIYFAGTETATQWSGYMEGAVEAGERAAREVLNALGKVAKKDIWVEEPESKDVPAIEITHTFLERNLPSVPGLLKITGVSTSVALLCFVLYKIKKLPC
- testMethodNotes: Monoamine oxidase-A inhibiting activity in vitro (radiochemical, 5-hydroxytryptamine substrate, rat brain homogenate)
- Type: biochemical
- appliedConditions: 1 × 10^-7 M
Please respond with the number in % and leave the unit unwritten.

### Prompt Please look up its inhibition at 0.1 µM: C#CCN(N)Cc1ccccc1 [CVT-P046, N^1 -propargylbenzylhydrazine]
### Response 18.5

### Prompt Same again, this time with NNCCc1ccccc1 [phenelzine, 1-(2-phenyl) ethylhydrazine, reference compound]
### Response 62.9

### Prompt Same again, this time with `C#CCN(CCc1ccccc1)NC(C)=O`
### Response 1.8

### Prompt Same again, this time with C#CCN(N)c1ccccc1 [CVT-P047, N^1 -propargylphenylhydrazine]
### Response -3.8

### Prompt Same again, this time with `C#CCN(N)CCc1ccccc1`
### Response 20.6

----------
- testedTarget: rat brain monoamine oxidase-A (Rattus norvegicus, UniProt P21396)
- Construct: appropriately diluted homogenates of rat brain or liver; from tissue; host or cells: rat brain or liver homogenate
- Sequence (P21396 1-526): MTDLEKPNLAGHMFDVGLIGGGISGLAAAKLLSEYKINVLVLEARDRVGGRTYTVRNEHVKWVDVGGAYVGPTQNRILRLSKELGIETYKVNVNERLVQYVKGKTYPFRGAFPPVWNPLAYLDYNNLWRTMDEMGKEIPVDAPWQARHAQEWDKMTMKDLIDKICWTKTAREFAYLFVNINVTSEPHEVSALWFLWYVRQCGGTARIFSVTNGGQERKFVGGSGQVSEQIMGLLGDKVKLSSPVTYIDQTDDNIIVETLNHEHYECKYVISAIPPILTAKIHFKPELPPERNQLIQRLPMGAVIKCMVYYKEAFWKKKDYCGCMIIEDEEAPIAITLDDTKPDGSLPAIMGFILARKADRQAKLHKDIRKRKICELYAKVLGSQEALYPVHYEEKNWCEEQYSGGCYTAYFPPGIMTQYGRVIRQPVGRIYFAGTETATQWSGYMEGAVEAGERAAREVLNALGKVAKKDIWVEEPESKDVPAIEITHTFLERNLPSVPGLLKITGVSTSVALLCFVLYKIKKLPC
- testMethodNotes: Monoamine oxidase-A inhibiting activity in vitro (radiochemical, 5-hydroxytryptamine substrate, rat brain homogenate)
- Assay type: biochemical
- appliedConditions: 1 × 10^-4 M
quantityKind: inhibition at 100 µM (%)
Please respond with the number in % and leave the unit unwritten.

### Prompt Please look up its inhibition at 100 µM: C#CCN(N)Cc1ccccc1 [CVT-P046, N^1 -propargylbenzylhydrazine]
### Response 100

### Prompt Same again, this time with `C#CCNNCCc1ccccc1`
### Response 31.6

### Prompt Same again, this time with `C#CCN(CCc1ccccc1)NC(C)=O`
### Response 79.5

### Prompt Same again, this time with C#CCN(N)c1ccccc1 [CVT-P047, N^1 -propargylphenylhydrazine]
### Response 99.7

### Prompt Same again, this time with NNCCc1ccccc1 [phenelzine, 1-(2-phenyl) ethylhydrazine, reference compound]
### Response 100

### Prompt Same again, this time with `C#CCN(N)CCc1ccccc1`
### Response 99.5

Attribution: patent US6060516A
